SYSTEM_TESTED: Histone deacetylase 1 (Homo sapiens)
Sequence (Q13547 whole entry): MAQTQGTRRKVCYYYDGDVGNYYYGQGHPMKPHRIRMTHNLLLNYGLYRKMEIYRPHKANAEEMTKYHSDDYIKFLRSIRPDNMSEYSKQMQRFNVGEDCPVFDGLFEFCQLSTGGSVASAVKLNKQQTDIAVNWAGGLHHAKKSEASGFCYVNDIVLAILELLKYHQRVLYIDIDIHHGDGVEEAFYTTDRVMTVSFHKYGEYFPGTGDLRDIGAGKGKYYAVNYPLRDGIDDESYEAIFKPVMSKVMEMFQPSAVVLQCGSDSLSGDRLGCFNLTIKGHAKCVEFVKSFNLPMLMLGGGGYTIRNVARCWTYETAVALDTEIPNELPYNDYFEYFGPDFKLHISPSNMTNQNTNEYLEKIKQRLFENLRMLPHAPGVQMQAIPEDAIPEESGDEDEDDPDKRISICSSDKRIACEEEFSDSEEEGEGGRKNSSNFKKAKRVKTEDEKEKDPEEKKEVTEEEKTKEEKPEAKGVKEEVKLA
ASSAY_METHOD_TEXT: Inhibition of recombinant human HDAC1 using Boc-Lys(Ac)-AMC as substrate preincubated for 1 hr followed by substrate addition and measured after 2 hrs by microplate reader assay
READOUT_KIND: IC50 (nM)

Please review the entries below; each comes with its answer.
[[record]]
structure = "O=C(NCC[Se][Se]CCNC(=O)/C(Cc1ccsc1)=N/O)/C(Cc1ccsc1)=N/O"
recorded_measurement = 770

[[record]]
structure = "O=C(NCC[Se][Se]CCNC(=O)/C(Cc1ccc(O)c(Br)c1)=N/O)/C(Cc1ccc(O)c(Br)c1)=N/O"
recorded_measurement = 170


[a] O=C(NCC[Se][Se]CCNC(=O)/C(Cc1ccc(Br)s1)=N/O)/C(Cc1ccc(Br)s1)=N/O
[b] O=C(NCCSSCCNC(=O)/C(Cc1ccc(O)c(Br)c1)=N/O)/C(Cc1ccc(O)c(Br)c1)=N/O
Task: Problem: Given the entries a and b , determine which has the lower reported IC50. Pick one and reply with its label.
Result: b
(b: 26 nM, a: 570 nM)
